Ref: patent US7202329

Molecular target: T1, Tsg101 (aa 240-391) (human, UniProt Q99816 240-390)
T1 construct: range 240-391; also called C-terminal fragment of Tsg101; amino acid residues 240-390
T1 sequence (looked up): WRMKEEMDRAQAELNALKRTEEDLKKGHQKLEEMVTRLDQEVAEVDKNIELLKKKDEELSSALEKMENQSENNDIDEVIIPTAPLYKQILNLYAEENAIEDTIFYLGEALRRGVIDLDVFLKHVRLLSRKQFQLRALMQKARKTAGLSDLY
Experiment: yeast two-hybrid
TEST_READOUT: binding result

BINDER	RESULT
GTPase-activating protein 1 (aa 1406-1547) (other, UniProt P46940 1406-1547, looked up, range 1406-1547; also called IQGAP1; IQGAP) EILETPATSEQEAEHQRAMQRRAIRDAKTPDKMKKSKSVKEDSNLTLQEKKEKIQTGLKKLTELGTVDPKNKYQELINDIARDIRNQRRYRQRRKAELVKLQQTYAALNSKATFYGEQVDYYKSYIKTCLDNLASKGKVSKK	binds
intersectin 1 (aa 436-547) (other, UniProt Q15811 436-547, looked up, range 436-547) AAKRELERQRQLEWERNRRQELLNQRNKEQEDIVVLKAKKKTLEFELEALNDKKHQLEGKLQDIRCRLTTQRQEIESTNKSRELRIAEITHLQQQLQESQQMLGRLIPEKQI	binds
GTPase-activating protein 1 (aa 1439-1565) (other, UniProt P46940 1439-1565, looked up, range 1439-1565; also called IQGAP1; IQGAP) KKSKSVKEDSNLTLQEKKEKIQTGLKKLTELGTVDPKNKYQELINDIARDIRNQRRYRQRRKAELVKLQQTYAALNSKATFYGEQVDYYKSYIKTCLDNLASKGKVSKKPREMKGKKSKKISLKYTA	binds
GTPase-activating protein 1 (aa 1439-1567) (other, UniProt P46940 1439-1567, looked up, range 1439-1567; also called IQGAP1; IQGAP) KKSKSVKEDSNLTLQEKKEKIQTGLKKLTELGTVDPKNKYQELINDIARDIRNQRRYRQRRKAELVKLQQTYAALNSKATFYGEQVDYYKSYIKTCLDNLASKGKVSKKPREMKGKKSKKISLKYTAAR	binds
